Source of measurements: the RNAGym collection of RNA variant scans (doi:10.7554/elife.90254)

B1: LINE1-mini (parent)
chain: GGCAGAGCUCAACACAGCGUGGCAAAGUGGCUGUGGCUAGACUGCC

Variants of: B1
Test: self-cleavage, relative activity (ratio to wild type); higher = more cleavage; in vitro, sequencing; the parent is a self-cleaving ribozyme
self-cleavage reference
Keep the answer to the number alone.

Some solved cases for reference:
GGCAGAGCUCAAGACAGCGUGGCAAAGUGGCGGUGGCUAGACUGCC: 0.05
GGCAGAGCUCAACACAGCGUGGCGAAGUGGCUGUGGCUAGACGGCC: 0.19
GGCAGAGCGCAACACAGCGUGGCAGAGUGGCUGUGGCUAGACUGCC: 0.06

According to the records, this variant UGCAGAGCUCAACACAGCGUGGCAAAGUGGCUGUGGCUUGACUGCC displays self-cleavage of 0.2

The recorded self-cleavage for entry GGCAGAGCUCAACACAGCGGGGCAAAGUGGCUGUGGCUCGACUGCC equals 0.13

// recorded self-cleavage for GGCAGAGCUCAACACAGCGUGGCAAAAUGGCUGGGGCUAGACUGCC : 0.32

Record summary for GGCAGAGCUCAACACAGCGUGGCAAAUUGGCUGUAGCUAGACUGCC : reported self-cleavage = 0.18

GET /value?item= GGCAGACCUCAACACAGCGUGGCAAAGUGGCUGUGGCUAGACUGCC &field=self-cleavage returns 0.13

Looking up GGCAGAGGUCAACACAGCGUGGCAAAGUGGCUGUGGCUAGAAUGCC , I see its self-cleavage listed as 0.05

For reference, reported self-cleavage for GGCAGAGCUCAGCACAGCGUGGCAAAGUGGCUCUGGCUAGACUGCC stands at 0.03

For GGCAGAGCUCAACACAGCGUGGCAAAGUGGCUCUGGGUAGACUGCC the variant record lists self-cleavage as 0.04

So, GGCAGAGUUCAACACAGCGUGGCAAAGUGGCUGUGGUUAGACUGCC ? Its self-cleavage was 0.2

Reported self-cleavage ( GGCAGAGCUAAACACAGCGUGGCAAAGUGGCUGUGGCUAGACAGCC ) = 0.01

// self-cleavage lookup, variant = GGCAGAGCUCAACUCAGCGGGGCAAAGUGGCUGUGGCUAGACUGCC , result: 0.28

Quick note, self-cleavage for GGCAGAGCUCAACACAGGGUGGCCAAGUGGCUGUGGCUAGACUGCC landed at 0.17

Briefly, self-cleavage measured for GGCAGAGCUCAACACAGCGUGGCAUAGUGGCUGUGGUUAGACUGCC : 0.03

In plain terms, GGCAGAGUUCAACACAGCGUGGCAAAGUGGCUGUGGCUUGACUGCC has a documented self-cleavage of 0.09

Sample GGCAAAGCUCAACACAGCGUGGCAAGGUGGCUGUGGCUAGACUGCC ; self-cleavage observed: 0.1

Entry GGCAGAGCUCACCACAGCGUGGCAAAGUAGCUGUGGCUAGACUGCC , self-cleavage reported as 0.01

Noted for GGCAGAGCUCAACACGGCGUGGCGAAGUGGCUGUGGCUAGACUGCC : its self-cleavage reads 0.16

Memo: GGCAGAGCUCAACACAGCUUGGCAAAGUGGCUGUGGCUAGACUUCC , reported self-cleavage: 0.28

The reported self-cleavage of the variant GGCAAAGCUCAACACAGCGUGGCCAAGUGGCUGUGGCUAGACUGCC was 0.08
